Listing of recorded EC50 by entry.
tested on: KB; assay: Cytotoxicity against drug-resistant human KB cells in absence of vinblastine; format: functional; conditions: read-out: ED50 (the source's name)

1) C=C1C(=O)C(O)=C[C@@H]2[C@@]3(C)CC[C@](C)(C(=O)OC)C[C@@H]3CC[C@]12C
1.8 mg/L

Query :: Sample C/C(=C\[C@H]1C[C@@H]([C@@H]2CC[C@]34C[C@]23[C@H](O)C[C@@H]2[C@@]3(C)CC=C5C[C@@H](c6ccccc6)OC[C@]5(C)[C@@H]3C[C@@H](O)[C@]24C)C(=O)O1)CO [DICHAPETALIN I] — what was its EC50?
Result :: > 20 mg/L

Query :: Sample C=C1C(=O)C(O)=C[C@@H]2[C@@]3(C)CC[C@](C)(C(=O)O)C[C@@H]3CC[C@]12C — what was its EC50?
Result :: 5 mg/L

Query :: Sample C[C@H]1C(=O)CC[C@H]2[C@]3(C)CC[C@@]4(C)[C@@H]5CC(C)(C)CC[C@]5(CO)CC[C@]4(C)[C@H]3C[C@@H](O)[C@]12C — what was its EC50?
Result :: > 20 mg/L

Query :: Sample C[C@H]1C(=O)CC[C@H]2[C@]3(C)CC[C@@]4(C)[C@@H]5CC(C)(C)CC[C@]5(C)CC[C@]4(C)[C@H]3C[C@@H](O)[C@]12C [ZEYLANOL] — what was its EC50?
Result :: > 20 mg/L

Query :: Sample CC1=C(O)C(=O)C[C@@H]2[C@@]3(C)CC[C@](C)(C(=O)O)C[C@@H]3CC[C@]12C — what was its EC50?
Result :: > 20 mg/L

====

Listing of recorded EC50 by entry.
test system: KB; assay: Cytotoxicity against drug-resistant human KB cells in presence of vinblastine; type: functional; conditions: read-out: ED50 (the source's name)

Study these solved cases before continuing.
1) C[C@H]1C(=O)CC[C@H]2[C@]3(C)CC[C@@]4(C)[C@@H]5CC(C)(C)CC[C@]5(CO)CC[C@]4(C)[C@H]3C[C@@H](O)[C@]12C
> 20 mg/L
2) C/C(=C\[C@H]1C[C@@H]([C@@H]2CC[C@]34C[C@]23C=C[C@@H]2[C@@]3(C)CC=C5C[C@@H](c6ccccc6)OC[C@]5(C)[C@@H]3C[C@@H](O)[C@]24C)C(=O)O1)CO [DICHAPETALIN A]
11.6 mg/L
3) C=C(C)[C@@H]1CC[C@]2(C(=O)O)CC[C@]3(C)[C@H](CC[C@@H]4[C@@]5(C)CC[C@H](O)C(C)(C)[C@@H]5CC[C@]43C)[C@@H]12 [BETULINIC ACID]
> 20 mg/L
4) CC1=C(O)C(=O)C[C@@H]2[C@@]3(C)CC[C@](C)(C(=O)O)C[C@@H]3CC[C@]12C
> 20 mg/L

Query :: Sample C/C(=C\[C@H]1C[C@@H]([C@@H]2CC[C@]34C[C@]23[C@H](O)C[C@@H]2[C@@]3(C)CC=C5C[C@@H](c6ccccc6)OC[C@]5(C)[C@@H]3C[C@@H](O)[C@]24C)C(=O)O1)CO [DICHAPETALIN I] — what was its EC50?
Result :: > 20 mg/L

Query :: Sample COc1ccc([C@@H]2CC3=CC[C@]4(C)[C@H]5C[C@@H](O)[C@]67C[C@]6(CC[C@H]7[C@@H]6C[C@H](/C=C(\C)CO)OC6=O)[C@]5(C)[C@H](O)C[C@H]4[C@@]3(C)CO2)cc1 [DICHAPETALIN J] — what was its EC50?
Result :: > 20 mg/L

====

system: SK-N-SH; experiment: Cytotoxicity against human SKNSH cells; format: functional; conditions: read-out: ED50 (the source's name)
Checkbox rule: EC50 lower than 9 µg/mL = 1; EC50 not lower than 9 µg/mL = -1.

1. C/C(=C\[C@H]1C[C@@H]([C@@H]2CC[C@]34C[C@]23C=C[C@@H]2[C@@]3(C)CC=C5C[C@@H](c6ccccc6)OC[C@]5(C)[C@@H]3C[C@@H](O)[C@]24C)C(=O)O1)CO [DICHAPETALIN A]
1
2. C[C@H]1C(=O)CC[C@H]2[C@]3(C)CC[C@@]4(C)[C@@H]5CC(C)(C)CC[C@]5(C)CC[C@]4(C)[C@H]3C[C@@H](O)[C@]12C [ZEYLANOL]
-1
3. C=C1C(=O)C(O)=C[C@@H]2[C@@]3(C)CC[C@](C)(C(=O)OC)C[C@@H]3CC[C@]12C
1

Please find the next molecule below.
Query :: Dear reviewer, please state whether COc1ccc([C@@H]2CC3=CC[C@]4(C)[C@H]5C[C@@H](O)[C@]67C[C@]6(CC[C@H]7[C@@H]6C[C@H](/C=C(\C)CO)OC6=O)[C@]5(C)[C@H](O)C[C@H]4[C@@]3(C)CO2)cc1 [DICHAPETALIN J] has EC50 strictly beneath 9 µg/mL.
Result :: 1

====

tested on: SK-N-SH; experiment: Cytotoxicity against human SKNSH cells; format: functional; conditions: read-out: ED50 (the source's name)
Listing of recorded EC50 by entry.
// note: answer is a bare numeric in µg/mL

1. C/C(=C\[C@H]1C[C@@H]([C@@H]2CC[C@]34C[C@]23[C@H](O)C[C@@H]2[C@@]3(C)CC=C5C[C@@H](c6ccccc6)OC[C@]5(C)[C@@H]3C[C@@H](O)[C@]24C)C(=O)O1)CO [DICHAPETALIN I]
9.9
2. C[C@H]1C(=O)CC[C@H]2[C@]3(C)CC[C@@]4(C)[C@@H]5CC(C)(C)CC[C@]5(CO)CC[C@]4(C)[C@H]3C[C@@H](O)[C@]12C
13

Query :: Hi! What's the reported EC50 for CC1=C(O)C(=O)C[C@@H]2[C@@]3(C)CC[C@](C)(C(=O)O)C[C@@H]3CC[C@]12C on SK-N-SH?
Result :: 10.4

====

system: Lu1; assay: Cytotoxicity against human Lu1 cells; type: functional; conditions: read-out: ED50 (the source's name)
measurement_name: EC50 (µg/mL)
// note: answer is a bare numeric in µg/mL

Study these solved cases before continuing.
1) C=C1C(=O)C(O)=C[C@@H]2[C@@]3(C)CC[C@](C)(C(=O)O)C[C@@H]3CC[C@]12C
3.8
2) COc1ccc([C@@H]2CC3=CC[C@]4(C)[C@H]5C=C[C@]67C[C@]6(CC[C@H]7[C@@H]6C[C@H](/C=C(\C)CO)OC6=O)[C@]5(C)[C@H](O)C[C@H]4[C@@]3(C)CO2)cc1
1
3) C[C@H]1C(=O)CC[C@H]2[C@]3(C)CC[C@@]4(C)[C@@H]5CC(C)(C)CC[C@]5(C)CC[C@]4(C)[C@H]3C[C@@H](O)[C@]12C
10.9

Query :: Sample C/C(=C\[C@H]1C[C@@H]([C@@H]2CC[C@]34C[C@]23CC[C@@H]2[C@@]3(C)CC=C5C[C@@H](c6ccccc6)OC[C@]5(C)[C@@H]3C[C@@H](O)[C@]24C)C(=O)O1)CO — what was its EC50?
Result :: 1

Query :: Sample C/C(=C\[C@H]1C[C@@H]([C@@H]2CC[C@]34C[C@]23C=C[C@@H]2[C@@]3(C)CC=C5C[C@@H](c6ccccc6)OC[C@]5(C)[C@@H]3C[C@@H](O)[C@]24C)C(=O)O1)CO — what was its EC50?
Result :: 4.1

====

Listing of recorded EC50 by entry.
system: KB; assay: Cytotoxicity against drug-resistant human KB cells in absence of vinblastine; type: functional; conditions: read-out: ED50 (the source's name)

1. COc1ccc([C@@H]2CC3=CC[C@]4(C)[C@H]5C[C@@H](O)[C@]67C[C@]6(CC[C@H]7[C@@H]6C[C@H](/C=C(\C)CO)OC6=O)[C@]5(C)[C@H](O)C[C@H]4[C@@]3(C)CO2)cc1 [DICHAPETALIN J]
> 20 µg/mL
2. C=C(C)[C@@H]1CC[C@]2(C(=O)O)CC[C@]3(C)[C@H](CC[C@@H]4[C@@]5(C)CC[C@H](O)C(C)(C)[C@@H]5CC[C@]43C)[C@@H]12 [BETULINIC ACID]
> 20 µg/mL

Please find the next molecule below.
Query :: Sample C/C(=C\[C@H]1C[C@@H]([C@@H]2CC[C@]34C[C@]23C=C[C@@H]2[C@@]3(C)CC=C5C[C@@H](c6ccccc6)OC[C@]5(C)[C@@H]3C[C@@H](O)[C@]24C)C(=O)O1)CO [DICHAPETALIN A] — what was its EC50?
Result :: > 20 µg/mL

====

Listing of recorded EC50 by entry.
system: KB; assay: Cytotoxicity against drug-resistant human KB cells in presence of vinblastine; format: functional; details: read-out: ED50 (the source's name)
// note: answer is a bare numeric in µg/mL

1) C=C1C(=O)C(O)=C[C@@H]2[C@@]3(C)CC[C@](C)(C(=O)O)C[C@@H]3CC[C@]12C
4.3

Query :: Sample C=C1C(=O)C(O)=C[C@@H]2[C@@]3(C)CC[C@](C)(C(=O)OC)C[C@@H]3CC[C@]12C — what was its EC50?
Result :: 1.7
